In this section we review reported z-score values for a set of compounds.
test: E. coli growth modulation, two-sided OD650, primary screen, E. coli filamentation project, strain DRC41, 24 h (AID 1093);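 note: MC1000 strain lacking acrAB efflux and sulA so SOS filamentation is blocked; test concentration not given here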
experimentalConditions: OD650, 24 h, higher = more signal, called active from +8 up or from −8 down
Please reply with the number alone, leaving off any unit.

Some compounds with known z-score results, for comparison:
compound=C[N+](C)(C)CCCCCCNC(=O)[C@@H]1C[C@@H]2C(=O)N3CCC[C@H]3C(=O)N2[C@@H]1c1cccc(OCCO)c1 assayresult=0.784
compound=Cc1cc2c(c(=O)o1)[C@H](O)[C@H]1O[C@H]1C2=O assayresult=-1.02
compound=CC(CCN1CCc2nc(-c3ccccc3)c(-c3ccccc3)cc2C1)=NO[C@@H](C)c1cn([C@H](CO)Cc2ccccc2)nn1 assayresult=-0.966
compound=CC(C)=CCCC(C)=CCON=C1C[C@@H](O)[C@@H](O)[C@@H]2[C@@H]3C(=O)N(C[C@@H]4CCCO4)C(=O)[C@@H]3CC[C@@H]12 assayresult=0.325
compound=COCCCNC(=O)[C@@]1(CCS(=O)(=O)c2ccccc2)N=C(c2ccc(OCCCO)cc2)O[C@H]1c1ccccc1 assayresult=2.54

# lookup: z-score of N#Cc1ccc(NN2C(C(O)c3cc(C(F)(F)F)cc(C(F)(F)F)c3)C=CC3C(=O)N(c4ccccc4)C(=O)C32)cc1 (stereo not drawn) -1.55

Quick check: z-score of `COC(=O)[C@@]1(Cc2ccc(F)cc2)[C@H]2c3cc(C(=O)N(C)C)n(Cc4ccc(OC)c(OC)c4)c3C[C@H]2CN1C(=O)c1ccccc1` ? -0.31

z-score lookup needed for `CCc1cc2c(nc1CC)CCN(CCC(C)=NOC[C@@H](O)COCc1ccco1)C2` , thanks. 0.903

====

test: small-molecule microarray binders of probe aNog, primary screen, biochemical, biotinylated probe, 635/667 nm fluorescence (AID 1115);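 note: probe is biotinylated aNog protein used at 0.15 µg/mL for 1 h at 4 C; z-score combines 667 nm fluorescence of each spot with its signal to noise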
experimentalConditions: higher = more signal
# binarize composite z-score: threshold -0.07 inclusive, high side met, low side not met

Observe how each entry below is paired with its result.
compound=CC(CCC(=O)OC[C@H]1O[C@H](C#Cc2ccccc2)C=C[C@@H]1Oc1ccc(C)cc1)=NOC[C@@H](O)[C@H]1O[C@@H]2OC(C)(C)O[C@@H]2[C@H]1O group="not met"
compound=CC(CCC(=O)OC[C@H]1O[C@H](C#Cc2ccccc2)C=C[C@@H]1Oc1ccc(C)cc1)=NOC[C@@H](O)COCc1ccco1 group="not met"
compound=O=C(NN=C1C[C@@H](O)[C@@H](O)[C@@H]2[C@@H]3C(=O)N(c4ccc(F)cc4F)C(=O)[C@@H]3CC[C@@H]12)OCc1ccccc1 group="not met"
compound=CO[C@H]1COC(=O)CC=C[C@H](C)[C@@H](NS(=O)(=O)c2ccc(C)cc2)COC(=O)CC=C[C@@H]1C group=met
compound=CN(C)CCCNC(=O)[C@@H]1c2ccccc2C(=O)N(Cc2ccccc2)[C@H]1c1ccc(CO)cc1 group=met
compound=CO[C@@H]1COC(=O)CC=C[C@@H](C)[C@@H]2C=C[C@@H](O)[C@@H](COC(=O)CC=C[C@H]1C)O2 group="not met"
compound=COc1ccc([Si](C)(C)[C@H]2[C@H](CCO)O[C@@]3(C(=O)N(Cc4cccc(NC(=O)[C@H](C)O)c4)c4ccccc43)[C@@H]2C)cc1 group="not met"
compound=CCN1C(=O)[C@H]2[C@H]3[C@H](O)C=CC(=O)[C@@H]3CC[C@H]2C1=O group=met

Please indicate if the recorded composite z-score for COC(=O)C1=CCC(c2cccc(Cl)c2)O1 (stereo unspecified) meets or exceeds -0.07. met

// inclusive: composite z-score at least -0.07? input: `O=C1[C@H]2[C@H]3[C@H](O)[C@H](O)CC(=NOC[C@@H](O)COCc4ccco4)[C@H]3CC[C@H]2C(=O)N1c1cccc(Oc2ccccc2)c1` met

Does composite z-score meet or surpass -0.07 for `O=C1O[C@@H](c2ccccc2)[C@@H](c2ccccc2)N2[C@@H](c3ccc(O)cc3)[C@]3(C(=O)Nc4ccccc43)[C@@H](C(=O)O)[C@H]12` ? met

State whether the measured composite z-score reaches -0.07, counting equality as reaching it, for `COC(=O)[C@@H]1CC[C@H](C)[C@@H](c2ccc(C)cc2)N1C(=O)c1ccc(C=NOC[C@@H](O)COCc2ccco2)cc1` not met

The measured values listed here are drawn from PubChem BioAssay.
